- Protocol Summary: Testing the stability of a TCO compound under chemical conditions (HPLC-MS/PDA, GC-MS)
- Format: physicochemical
- Particulars: 0.1 M NH4OAc buffer, pH = 7.0; 20° C.; read-out: Stability of TCO, t1/2
Quantity Name: half-life (h)
Give bare numbers, in h.

Query :: Entry NC1CC/C=C/CCC1NC(=O)Oc1ccccc1 (stereo not shown) needs its half-life filled in; supply it.
Result :: 80

----------
- Protocol Summary: Testing the feasibility of the deprotection of TCO compounds upon reaction with tetrazine
- Particulars: tetrazine 8; B) in acetonitrile with 5 equivalents of DIPEA per TCO at 20° C.; for 1 h
Quantity Name: Deprotection (%)
One number for each entry, in %.

Record excerpt, results attached:
Query :: Entry C1=C/C(Oc2ccccc2)CCCCC/1 (stereo not drawn) [drawing 120] needs its Deprotection (%) filled in; supply it.
Result :: 92

Query :: Entry Cc1cc(C)cc(NC(=O)OC2/C=C/CCCCC2)c1 (stereo not drawn) [drawing 126] needs its Deprotection (%) filled in; supply it.
Result :: 4

Query :: Entry O=C(OC1/C=C/CCCCC1)c1ccc([N+](=O)[O-])cc1 (stereo not drawn) [drawing 116] needs its Deprotection (%) filled in; supply it.
Result :: 83

Query :: Entry O=C(NCc1cccc2ccccc12)OC1/C=C/CCCCC1 (stereo not drawn) needs its Deprotection (%) filled in; supply it.
Result :: 58

Query :: Entry Cc1cc(C)cc(NC(=O)OC2/C=C/CCCCC2)c1 (stereo not drawn) [drawing 128] needs its Deprotection (%) filled in; supply it.
Result :: 39

We next turn to a different compound, shown below.
Query :: Entry O=C(Oc1ccc([N+](=O)[O-])cc1)OC1/C=C/CCCCC1 (stereo not drawn) needs its Deprotection (%) filled in; supply it.
Result :: 90

Data origin: patent US10927139B2
